# Assay summary: Static bioassay, lethal concentration to Kamloops trout
# Type: in vivo, Kamloops (an adfluvial rainbow trout)
# Measurement conditions: kamloops trout, in vivo, 15 C; 192 h; read-out: LC50
Observed property: LC50 at 192 h (µg/mL)
Report the figure in µg/mL without appending any unit label.

[ask] Name the recorded LC50 at 192 h for CCOP(=O)(OC=C(Cl)Cl)OCC [2,2-dichlorovinyl diethyl phosphate] .
[reply] 3

---

# Assay summary: in vivo
# Measurement conditions: chinook salmon
Observed property: LC50 at 96 h
Quote the value and follow it with the unit of measurement.

[ask] Name the recorded LC50 at 96 h for CCOP(=O)(OCC)OC(Cl)C(Cl)(Cl)Cl (stereo not shown) .
[reply] 0.025 µg/mL
